Biological target: Muscarinic acetylcholine receptor M3 (Homo sapiens) (UniProt P20309)
Sequence (P20309 whole entry, looked up): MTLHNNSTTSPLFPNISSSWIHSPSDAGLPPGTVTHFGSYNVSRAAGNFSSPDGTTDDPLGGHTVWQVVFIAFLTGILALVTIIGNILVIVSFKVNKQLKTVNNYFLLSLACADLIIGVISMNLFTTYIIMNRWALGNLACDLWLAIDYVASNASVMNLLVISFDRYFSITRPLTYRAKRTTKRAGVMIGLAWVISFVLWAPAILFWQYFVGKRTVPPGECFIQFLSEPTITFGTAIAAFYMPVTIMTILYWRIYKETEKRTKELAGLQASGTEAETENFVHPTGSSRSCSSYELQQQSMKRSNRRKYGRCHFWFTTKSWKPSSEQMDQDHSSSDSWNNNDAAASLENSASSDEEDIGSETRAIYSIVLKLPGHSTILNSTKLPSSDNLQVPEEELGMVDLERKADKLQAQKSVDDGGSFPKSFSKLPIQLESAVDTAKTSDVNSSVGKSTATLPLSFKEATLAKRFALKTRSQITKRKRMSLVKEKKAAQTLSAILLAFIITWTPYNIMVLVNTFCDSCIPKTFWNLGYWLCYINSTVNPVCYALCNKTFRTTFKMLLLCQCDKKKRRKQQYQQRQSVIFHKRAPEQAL
Test: Binding affinity at the unliganded human muscarinic acetylcholine receptor M3 was estimated as log affinity (log1/M)
quantity_measured: Affinity

{"columns": ["compound", "measured_value"],
 "data": [
  ["O=C1C[C@@H]2OCC=C3C[N+]4([O-])CC[C@]56c7ccccc7N1[C@H]5[C@H]2[C@H]3C[C@@H]64 (some centres not stated)", "< 3.9"],
  ["O=C1C[C@@H]2OCC=C3C[N+]4(Cc5ccccc5)CC[C@]56c7ccccc7N1[C@H]5[C@H]2[C@H]3C[C@@H]64 (some centres not stated)", "< 5.2"],
  ["COc1cc2c(cc1OC)[C@@]13CC[N+]4(CCl)CC5=CCO[C@H]6CC(=O)N2[C@H]1[C@H]6[C@H]5C[C@@H]34 (some centres not stated)", 3.7],
  ["CCC[N+]12CC[C@@]34c5ccccc5N5C(=O)C[C@@H]6OCC=C(C1)[C@H](C[C@@H]32)[C@@H]6[C@H]54 (some centres not stated)", 5],
  ["N#CC[N+]12CC[C@@]34c5ccccc5N5C(=O)C[C@@H]6OCC=C(C1)[C@H](C[C@@H]32)[C@@H]6[C@H]54 (some centres not stated)", "< 3.9"],
  ["COc1cc2c(cc1OC)[C@@]13CCN4CC5=CCO[C@H]6CC(=O)N2[C@H]1[C@H]6[C@H]5C[C@H]43", 3.5],
  ["COc1cc2c(cc1OC)[C@@]13CC[N+]4([O-])CC5=CCO[C@H]6CC(=O)N2[C@H]1[C@H]6[C@H]5C[C@@H]34 (some centres not stated)", 2.8]
]}

====

Target: Muscarinic acetylcholine receptor M2 (Homo sapiens)
Experiment: Binding affinity at the NMS liganded human muscarinic acetylcholine receptor M2 was estimated as log affinity (log1/M)
quantity_measured: Affinity

{"columns": ["molecule", "measured_value"],
 "data": [
  ["N[N+]12CC[C@@]34c5ccccc5N5C(=O)C[C@@H]6OCC=C(C1)[C@H](C[C@@H]32)[C@@H]6[C@H]54 (stereo not given in full)", 5.4],
  ["N#CC[N+]12CC[C@@]34c5ccccc5N5C(=O)C[C@@H]6OCC=C(C1)[C@H](C[C@@H]32)[C@@H]6[C@H]54 (stereo not given in full)", 5.1],
  ["O=C1C[C@@H]2OCC=C3C[N+]4(CCc5ccccc5)CC[C@]56c7ccccc7N1[C@H]5[C@H]2[C@H]3C[C@@H]64 (stereo not given in full)", 5.7],
  ["COc1cc2c(cc1OC)[C@@]13CC[N+]4(C)CC5=CCO[C@H]6CC(=O)N2[C@H]1[C@H]6[C@H]5C[C@@H]34 (stereo not given in full)", 4.5],
  ["C[N+]12CC[C@@]34c5ccccc5N5C(=O)C[C@@H]6OCC=C(C1)[C@H](C[C@@H]32)[C@@H]6[C@H]54 (stereo not given in full)", 5.1],
  ["O=C1C[C@@H]2OCC=C3C[N+]4(Cc5ccc6ccccc6c5)CC[C@]56c7ccccc7N1[C@H]5[C@H]2[C@H]3C[C@@H]64 (stereo not given in full)", 6.1],
  ["O=C1C[C@@H]2OCC=C3C[N+]4([O-])CC[C@]56c7ccccc7N1[C@H]5[C@H]2[C@H]3C[C@@H]64 (stereo not given in full)", 4.4],
  ["COc1cc2c(cc1OC)[C@@]13CC[N+]4(CCl)CC5=CCO[C@H]6CC(=O)N2[C@H]1[C@H]6[C@H]5C[C@@H]34 (stereo not given in full)", 4.4],
  ["C=CC[N+]12CC[C@@]34c5ccccc5N5/C=C6/[C@H]7C[C@H]8[C@@]9(CC[N@@+]8(CC=C)C/C7=C/CO)c7ccccc7N(/C=C(/[C@@H](C[C@@H]31)/C(=C\\CO)C2)[C@H]54)[C@@H]69 (stereo not given in full)", 6.5],
  ["O=C1C[C@@H]2OCC=C3C[N+]4(Cc5cccc([N+](=O)[O-])c5)CC[C@]56c7ccccc7N1[C@H]5[C@H]2[C@H]3C[C@@H]64 (stereo not given in full)", 6]
]}

====

Recorded Affinity by entry
Biological target: Muscarinic acetylcholine receptor M1 (Homo sapiens) (UniProt P11229)
Sequence (P11229 whole entry): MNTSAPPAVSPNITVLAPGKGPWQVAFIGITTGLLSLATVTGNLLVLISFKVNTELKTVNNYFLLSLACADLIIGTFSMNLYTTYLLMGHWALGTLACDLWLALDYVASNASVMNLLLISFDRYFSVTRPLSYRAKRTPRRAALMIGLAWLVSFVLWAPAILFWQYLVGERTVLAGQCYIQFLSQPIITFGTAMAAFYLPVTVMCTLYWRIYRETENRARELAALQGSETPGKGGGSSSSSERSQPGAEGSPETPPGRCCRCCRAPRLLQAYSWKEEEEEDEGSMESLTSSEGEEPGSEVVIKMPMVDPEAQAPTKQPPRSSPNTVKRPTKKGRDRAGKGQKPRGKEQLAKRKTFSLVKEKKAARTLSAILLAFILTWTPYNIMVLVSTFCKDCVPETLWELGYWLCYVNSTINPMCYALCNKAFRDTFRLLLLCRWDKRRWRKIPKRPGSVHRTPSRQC
Test: Binding affinity at the unliganded human muscarinic acetylcholine receptor M1 was estimated as log affinity (log1/M)

{"columns": ["molecule", "Affinity"],
 "data": [
  ["C#CC[N+]12CC[C@@]34c5ccccc5N5C(=O)C[C@@H]6OCC=C(C1)[C@H](C[C@@H]32)[C@@H]6[C@H]54 (some centres undefined)", 5.2],
  ["COc1cc2c(cc1OC)[C@@]13CC[N+]4(CCl)CC5=CCO[C@H]6CC(=O)N2[C@H]1[C@H]6[C@H]5C[C@@H]34 (some centres undefined)", 4.4],
  ["C=CC[N+]12CC[C@@]34c5ccccc5N5C(=O)C[C@@H]6OCC=C(C1)[C@H](C[C@@H]32)[C@@H]6[C@H]54 (some centres undefined)", 4.7],
  ["O=C1C[C@@H]2OCC=C3C[N+]4(Cc5ccccc5)CC[C@]56c7ccccc7N1[C@H]5[C@H]2[C@H]3C[C@@H]64 (some centres undefined)", "< 5"]
]}

====

Target: Muscarinic acetylcholine receptor M3 (Homo sapiens)
Experiment: Binding affinity at the NMS liganded human muscarinic acetylcholine receptor M3 was estimated as log affinity (log1/M)

{"columns": ["compound", "Affinity"],
 "data": [
  ["COc1cc2c(cc1OC)[C@@]13CC[N+]4(Cc5ccccc5)CC5=CCO[C@H]6CC(=O)N2[C@H]1[C@H]6[C@H]5C[C@@H]34 (some centres undefined)", 3.8],
  ["CC[N+]12CC[C@@]34c5ccccc5N5C(=O)C[C@@H]6OCC=C(C1)[C@H](C[C@@H]32)[C@@H]6[C@H]54 (some centres undefined)", 4.2],
  ["COc1cc2c(cc1OC)[C@@]13CC[N+]4(N)CC5=CCO[C@H]6CC(=O)N2[C@H]1[C@H]6[C@H]5C[C@@H]34 (some centres undefined)", 3.9],
  ["C=CC[N+]12CC[C@@]34c5cc(OC)c(OC)cc5N5C(=O)C[C@@H]6OCC=C(C1)[C@H](C[C@@H]32)[C@@H]6[C@H]54 (some centres undefined)", 3.5]
]}

====

Biological target: Muscarinic acetylcholine receptor M1 (Homo sapiens)
Experiment: Binding affinity at the NMS liganded human muscarinic acetylcholine receptor M1 was estimated as log affinity (log1/M)
The label is true for Affinity below 5 and false for Affinity equal to or exceeding 5.

{"columns": ["compound", "label"],
 "data": [
  ["C=CC[N+]12CC[C@@]34c5ccccc5N5/C=C6/[C@H]7C[C@H]8[C@@]9(CC[N@@+]8(CC=C)C/C7=C/CO)c7ccccc7N(/C=C(/[C@@H](C[C@@H]31)/C(=C\\CO)C2)[C@H]54)[C@@H]69 (stereo partly specified)", "true"],
  ["C#CC[N+]12CC[C@@]34c5ccccc5N5C(=O)C[C@@H]6OCC=C(C1)[C@H](C[C@@H]32)[C@@H]6[C@H]54 (stereo partly specified)", "true"],
  ["O=C1C[C@@H]2OCC=C3C[N+]4(Cc5ccc(-c6ccccc6)cc5)CC[C@]56c7ccccc7N1[C@H]5[C@H]2[C@H]3C[C@@H]64 (stereo partly specified)", "false"],
  ["C=CC[N+]12CC[C@@]34c5ccccc5N5C(=O)C[C@@H]6OCC=C(C1)[C@H](C[C@@H]32)[C@@H]6[C@H]54 (stereo partly specified)", "true"],
  ["C=CC[N+]12CC[C@@]34c5cc(OC)c(OC)cc5N5C(=O)C[C@@H]6OCC=C(C1)[C@H](C[C@@H]32)[C@@H]6[C@H]54 (stereo partly specified)", "true"],
  ["COc1cc2c(cc1OC)[C@@]13CC[N+]4(N)CC5=CCO[C@H]6CC(=O)N2[C@H]1[C@H]6[C@H]5C[C@@H]34 (stereo partly specified)", "true"]
]}

====

Target: Muscarinic acetylcholine receptor M5 (Homo sapiens)
Assay: Cooperativity with acetylcholine at Muscarinic acetylcholine receptor M5
The reader will find reported Cooperativity values listed item by item below.

{"columns": ["molecule", "operator_symbol", "Cooperativity"],
 "data": [
  ["COc1cc2c(cc1OC)[C@@]13CC[N+]4(C)CC5=CCO[C@H]6CC(=O)N2[C@H]1[C@H]6[C@H]5C[C@@H]34 (some centres not stated)", "<", 0.2],
  ["COc1cc2c(cc1OC)[C@@]13CC[N+]4(Cc5ccccc5)CC5=CCO[C@H]6CC(=O)N2[C@H]1[C@H]6[C@H]5C[C@@H]34 (some centres not stated)", "=", 0.8],
  ["COc1cc2c(cc1OC)[C@@]13CC[N+]4([O-])CC5=CCO[C@H]6CC(=O)N2[C@H]1[C@H]6[C@H]5C[C@@H]34 (some centres not stated)", "=", 0.8],
  ["COc1cc2c(cc1OC)[C@@]13CCN4CC5=CCO[C@H]6CC(=O)N2[C@H]1[C@H]6[C@H]5C[C@H]43", "<", 0.2],
  ["COc1cc2c(cc1OC)[C@@]13CC[N+]4(N)CC5=CCO[C@H]6CC(=O)N2[C@H]1[C@H]6[C@H]5C[C@@H]34 (some centres not stated)", "=", 0.8],
  ["COc1cc2c(cc1OC)[C@@]13CC[N+]4(CCl)CC5=CCO[C@H]6CC(=O)N2[C@H]1[C@H]6[C@H]5C[C@@H]34 (some centres not stated)", "<", 0.2],
  ["C=CC[N+]12CC[C@@]34c5cc(OC)c(OC)cc5N5C(=O)C[C@@H]6OCC=C(C1)[C@H](C[C@@H]32)[C@@H]6[C@H]54 (some centres not stated)", "=", 0.8]
]}
